# System: MDA-MB-231
# procedureSummary: NCI tumour cell line growth inhibition, 48 h
Activity calls are given as the source filed them. Rule as the data show it: active = GI50 up to about 1.1 µM and inactive = higher.
Tick one outcome: YES (active), NO (inactive)

molecule=Cn1c(N)c(/C=C/C(=O)Oc2ccccc2)c(=O)n(C)c1=O classname=NO

Here is the next item to consider.
I would be grateful if you could indicate the recorded call for "C/C(=N\NC(=S)N1CCN(C)CC1)c1nc2cccnc2[nH]1" .
NO

* * *

# Tested on: HCT-116
# procedureSummary: NCI tumour cell line growth inhibition, 48 h
Activity calls are given as the source filed them. No stated cut-off is given here; in the data, active = GI50 up to about 1.1 µM and inactive = higher.
Examples of compounds with documented GI50 follow.

compound=CCOC(=O)/C=C/c1c[nH]c(=O)[nH]c1=O attributemeasured=GI50 assayresult="> 75 µM (inactive)"
compound=CC(C)CCC/C(CBr)=C(\Cl)CCl attributemeasured=GI50 assayresult="2.69 µM (inactive)"
compound=NCCSc1nc2ccccc2s1 attributemeasured=GI50 assayresult="33.7 µM (inactive)"
compound="CCOC1=CP(=O)(OCC)CC(C)=C1Cl (configuration not stated)" attributemeasured=GI50 assayresult="> 100 µM (inactive)"
compound=Cn1c(N)c(/C=C/C(=O)Oc2ccccc2)c(=O)n(C)c1=O attributemeasured=GI50 assayresult="> 100 µM (inactive)"

Which GI50 reading was recorded for the compound CC(C)(C)/N=C1\C(=O)C2(C)CCC1C2(C)C (configuration not stated) ?
> 100 µM (inactive)

# repeat for CCCCCCCC(=O)OCC(COC(=O)C(C)(C)C)OC(=O)Cc1ccccc1 (configuration not stated)
> 100 µM (inactive)
